Hey, just so you know, these numbers are from ChEMBL document CHEMBL4513216.

test system: Plasmodium berghei; assay: Screen against P. berghei liver stage (PbLuc), transformed with Luciferase, at 10uM; type: functional, HepG2; conditions: tested at 10 uM
The campaign covered roughly 69,000 compounds. About 8,600 (12%) showed an effect of 50% or more. Shown is part of a subset that was picked to be rich in strong results.

{"molecule": "CCC[C@H]1CN(Cc2ccc(N(C)C)nc2)C[C@@H]1NC(=O)CCOC", "INHIBITION": "62.2%"}
{"molecule": "CCN(CC)CCNC(=O)CCc1c(C)nn(-c2ccc(Cl)cc2)c1C", "INHIBITION": "63.9%"}
{"molecule": "CCC[C@H]1CN(Cc2ccc(N(C)C)nc2)C[C@@H]1NC(=O)CSC", "INHIBITION": "33.1%"}
{"molecule": "COc1ccccc1C1CNCCN1C(C)=O (stereo unspecified)", "INHIBITION": "9.98%"}
{"molecule": "CCN1CCN(C(=O)c2cnc(Cc3c(Cl)cccc3Cl)nc2O)CC1", "INHIBITION": "8.11%"}
{"molecule": "CC(Nc1cccc2c1OCCO2)C(=O)Nc1ccc(S(N)(=O)=O)cc1 (stereo unspecified)", "INHIBITION": "-24.9%"}
{"molecule": "O=C(NCc1nnc2n1CCCC2)N1CCc2sccc2C1", "INHIBITION": "5.7%"}
{"molecule": "c1ccc(Cc2noc(-c3ccc(NCC4COCCO4)nc3)n2)cc1 (stereo unspecified)", "INHIBITION": "12.02%"}
{"molecule": "COCCN1CC[C@@H](OC)[C@@H]1Cc1ccccc1", "INHIBITION": "-34.7%"}
{"molecule": "Cc1ccc(N2CC[C@H]3OCC[C@@]3(C(=O)NC(C)C)C2)nn1", "INHIBITION": "35.1%"}
{"molecule": "CN(CC(=O)NCCCOc1ccc(F)cc1)c1ccc(C#N)cn1", "INHIBITION": "3.84%"}

====

test system: Plasmodium berghei; test: Screen against P. berghei liver stage (PbLuc), transformed with Luciferase, at 10uM; assay type: functional, HepG2; settings: tested at 10 uM
The campaign covered roughly 69,000 compounds. About 8,600 (12%) showed an effect of 50% or more. Many of the other results were omitted from the sample, so strong results are more common in it than they were.
# if measured INHIBITION < 20%: Condition met  # else: Condition not met

{"compound": "N#Cc1ccccc1N1CCCN(C(=O)CCc2cccs2)CC1", "class assignment": "Condition met"}
{"compound": "Cc1nc(CN2CCCC2c2[nH]ncc2C(=O)N(C)C)cs1 (stereo not drawn)", "class assignment": "Condition met"}
{"compound": "C=C(C)CN1CCC(NC(=O)Nc2ccc(F)c(C(N)=O)c2)CC1", "class assignment": "Condition not met"}
{"compound": "Cc1[nH]nc2ncc(C(=O)N3CCN(CC(C)O)CC3)cc12 (stereo not drawn)", "class assignment": "Condition met"}
{"compound": "COc1cccc(OCCNS(=O)(=O)Cc2ccccc2)c1", "class assignment": "Condition met"}
{"compound": "CNC(=O)[C@H]1C[C@H]2OCC[C@H]2N(Cc2ccc(C)o2)C1", "class assignment": "Condition met"}
{"compound": "Cc1n[nH]c(C)c1CNC(=O)CSCc1ccccc1Cl", "class assignment": "Condition met"}
{"compound": "O=C(c1ccn(-c2cccc(Cl)c2)n1)N1CCN(CCO)CC1", "class assignment": "Condition met"}
{"compound": "Cc1ncccc1O[C@H]1CCN(C(=O)Cc2cccs2)CC[C@@H]1O", "class assignment": "Condition not met"}
{"compound": "CC(=O)N1CCC(c2cnc(NC3CCOCC3)cn2)CC1", "class assignment": "Condition met"}
{"compound": "COCC(=O)N1CCCCC1c1nc(C)c2c(n1)N(C1CC1)C(=O)CC2 (stereo not drawn)", "class assignment": "Condition not met"}
{"compound": "CSCC1CCCN(c2ncnc3oc(C)nc23)C1 (stereo not drawn)", "class assignment": "Condition met"}
{"compound": "COc1c(CNCc2nnc3n2CCCCC3)c(C(C)C)nn1C", "class assignment": "Condition not met"}
{"compound": "CNC(=O)c1cc(NC(=O)NC2CC2)ccc1F", "class assignment": "Condition met"}
{"compound": "Cc1cccc(CN2CCc3ncnc(Oc4cccnc4)c3CC2)n1", "class assignment": "Condition met"}
{"compound": "CCn1c(SCC(=O)N2CCCC2)nc2cc(C)[nH]c2c1=O", "class assignment": "Condition not met"}
{"compound": "C=C(C)CN1CCC(NC(=O)Nc2ccc(F)c(C(=O)NC)c2)CC1", "class assignment": "Condition not met"}
{"compound": "Cc1csc(C(=O)N2CC[C@H](Oc3cccnc3C)[C@@H](O)CC2)c1", "class assignment": "Condition not met"}
{"compound": "Cc1ccc(C(=O)N2CC[C@H](Oc3cccnc3C)[C@@H](O)CC2)s1", "class assignment": "Condition not met"}
{"compound": "COCC(=O)N1CCC([C@@H]2C[C@H](C(F)(F)F)n3nc(C)cc3N2)CC1", "class assignment": "Condition met"}
{"compound": "Cc1ncccc1O[C@H]1CCN(C(=O)c2cccs2)CC[C@@H]1O", "class assignment": "Condition not met"}
{"compound": "CCc1ccc(C(=O)N2CC[C@H](Oc3cccnc3C)[C@@H](O)CC2)cc1", "class assignment": "Condition not met"}
{"compound": "CC(C)(C)c1cc(NC(=O)CNC2CCc3ncnn3C2)on1 (stereo not drawn)", "class assignment": "Condition not met"}

====

Each item that follows carries a reported INHIBITION.
test system: Plasmodium berghei; assay: Screen against P. berghei liver stage (PbLuc), transformed with Luciferase, at 10uM; type: functional, HepG2; settings: tested at 10 uM
The whole screen tested about 69,000 compounds, of which about 8,600 (12%) showed an effect of 50% or more. The sample holds strong results, similar compounds and a random draw of the others, so the mix is not that of the screen.
property measured: INHIBITION (%)

{"compound": "Cn1cc(NC(=O)NC2CCCN(c3ccccc3Cl)C2=O)cn1 (stereo not given)", "unit annotation": "%", "observed result": 24.8}
{"compound": "Cc1ccccc1C(=O)N1CC[C@@H](N(C)C)[C@@H]1Cc1cnn(C)c1", "unit annotation": "%", "observed result": 34.6}
{"compound": "CN(C)C(=O)N1CC[C@@H](O)[C@@H]1Cc1cnn(C)c1", "unit annotation": "%", "observed result": 19.5}
{"compound": "CN(C)[C@@H]1CCN(C(=O)c2ccco2)[C@H]1Cc1cnn(C)c1", "unit annotation": "%", "observed result": 33.4}
{"compound": "Cn1cc(C[C@H]2[C@H](N3CCOCC3)CCN2C(=O)c2ccc[nH]2)cn1", "unit annotation": "%", "observed result": 55.5}

====

Below, each entry is listed alongside its reported INHIBITION.
test system: Plasmodium berghei; test: Screen against P. berghei liver stage (PbLuc), transformed with Luciferase, at 10uM; assay type: functional, HepG2; settings: tested at 10 uM
Out of some 69,000 compounds screened, about 8,600 (12%) showed an effect of 50% or more. For the sample, strong results were picked, then their nearest neighbours and some compounds at random.
property measured: INHIBITION (%)

{"compound": "Cc1cccc(CN2C[C@@H]3OCCN(c4cnccn4)[C@@H]3C2)n1", "tested on": "Plasmodium berghei", "observed result": -18.5}
{"compound": "COc1ncc(Cl)c(NCc2ccc([S+](C)[O-])cc2)n1 (stereo unspecified)", "tested on": "Plasmodium berghei", "observed result": 61.1}
{"compound": "COc1ccc(CN2CCc3[nH]nc(C(=O)N(C)C)c3C2)cc1", "tested on": "Plasmodium berghei", "observed result": 21.1}
{"compound": "COc1ncc(Cl)c(NCc2ccc(C(=O)N(C)C)cc2)n1", "tested on": "Plasmodium berghei", "observed result": 58.9}
{"compound": "CN(Cc1ccco1)C(=O)CN1CCOC(Cn2cncn2)C1 (stereo unspecified)", "tested on": "Plasmodium berghei", "observed result": -0.219}
{"compound": "Cc1nc(C)n(C2CCCN(C(=O)CCn3cncn3)C2)n1 (stereo unspecified)", "tested on": "Plasmodium berghei", "observed result": 14.9}
{"compound": "CCOCc1ccc(CNc2nc(OC)ncc2Cl)cc1", "tested on": "Plasmodium berghei", "observed result": 35.4}
{"compound": "CN(C)c1nccc(N2CCO[C@H]3CN(Cc4ccsc4)C[C@H]32)n1", "tested on": "Plasmodium berghei", "observed result": 65.1}
{"compound": "CCN(Cc1cc(F)ccc1Cl)C1CCS(=O)(=O)C1 (stereo unspecified)", "tested on": "Plasmodium berghei", "observed result": 12.1}
{"compound": "COc1ccccc1OCCc1nnc(NC(=O)C2CC23CCC3)s1 (stereo unspecified)", "tested on": "Plasmodium berghei", "observed result": 31.97}
{"compound": "Cc1ccc(F)cc1NC(=O)c1[nH]ncc1Br", "tested on": "Plasmodium berghei", "observed result": 11.7}
